All values here come from the DeepSol protein solubility set.

test: soluble on expression in E. coli; label from the status in PepcDB or PDB records
measure: soluble on expression in E. coli

- ordered-residues: "MVKVYIHDNKVDSDYRAPHNSGTELSLDELAKLGVIYKYCANEEEVNEIARQREYKNRDVVNICEGSFKSEAEFNEKLATFYQEHLHEDEEIRYCLEGAGYFDVRDASTPENWIRCLVESGDLLILPPGIYHRFTLTTSNHIKALRLFKDEPKWQAINRSNQADSLPVRKDYIALINQY"
  recorded-value: "soluble"
- ordered-residues: "GPGSMGAVKFQLYKTLGVPMKSSIKDITRAYRHLALKYHPDRNPEGVEKFKSISNAYAVLSDPERRAAYDLTGFLSDSADSSHAMSDEAARQQRSAELADQVRTFFATYAGSAEERLDVVRGYEKCRGDFKKMVREYLLFDNGVEAEVQRLHRLVSTLIELGNLSPTPAWKSTSTPEALLRLEKAMHRERQEAENVLKDMAGSGTGAAGAADGDLSSLQVMIRQRQQSSYESMLNHLESKYVTKKSNARESSKRTREAAPTARKDECASKKHRKASHHR"
  recorded-value: "soluble"

###

assay: soluble on expression in E. coli; label from the status in PepcDB or PDB records
measure: soluble on expression in E. coli

- ordered-residues: "MVYVKSLLRRADNFMYIVKKSSEARAALLVDLVNEEDYKELADKENIDITAVLTTHHHYDHCGGNEGFRRQFPNVMILGGDSRIPAMDRHVKHGDMAEFAGLQIKCLSTPCHTSGHICYHITNPAADSTSPGVVFTGDTLFIAGCGRFFEGTAPQMDVALNEILKNLPVETQIFPGHEYTVANLKFACHVEPGNEKAAQKLEWAQRQIEQGGFTVPSTVAEEKATNPFMRVRESEEIQKSIGTCDAVVGMAKLREMKNKF"
  recorded-value: "not soluble"
- ordered-residues: "MMVIGRLGAGKSFATKLRLVRRAMFDEDTVVIMLDPMRGFAGVNEALDGERITVGGRRGLNPLEIKPTPDHVLQEVDDIDPWGEQINWVMTFFATFFEHVADHPLGERNQTLRRAVQEAYEKRGITRDPETHTRDSPTIHDVITVLEEMVEDPEEYGYVTDGEQEAVQSDAQSLLKDLRPSFREGGELENLARPSEFDLDSKVIYLDLHQEEGTRGRAETSLMMQVLFNSVYERVKQTDKRVVFCIDEAHYLMNDAVSLDFLETAVRHSRHFDLSLEFITQTGGEFALTPEARTIANLCSLTVLHRVNEEKEKIAKWF"
  recorded-value: "not soluble"
- ordered-residues: "MSSKNSLSDKIKITFQYIMPKHAISRLVGKLAAAKMGWLTTKLISMFIKAYGINMNEAKLKKASDFDTFNNFFTRELEEGARIIDNDENTICYPVDGAISQQGDIIDGQLIQAKGFNYSVTSLLGGDEKTAAPFQGGKFSCIYLAPKDYHRIHMPMAATLREMIYVPGELFSVNPLTAQNVPDLFARNERVVAIFDTEMGELAMVLVGATIVASIETTWAGTITPPAGKDIFRWQYPKDGADAITFEKGDEMGRFKLGSTVVSTFAPNMISEFATDAGPGTVTRLGEIYAALDKSASLEHHHHHH"
  recorded-value: "not soluble"

###

assay: soluble on expression in E. coli; label from the status in PepcDB or PDB records
measure: soluble on expression in E. coli

Use the examples below as a reference point.
- ordered-residues: "MIAATPQAMDKQPSAKNQPCGIDKEVGTIANTVITLMPKYIDTNVIVLRHSCANRPPWRNAATNHANNPRNPSKNSTDITTPIDAAISGTACPFIRFSNSAIN"
  soluble on expression in E. coli: "not soluble"
- ordered-residues: "MDHVHKSTTTDEDERNSGRAIDRHNPIIKDGRRSFADDFIKLPTSAEDGEMSNKKLEIYKGRRSITGRRSTGGGGGGGAAALLKLITNDIGLARKSFSCVARPACDLIKTPVGSTRYLLGSDPDSITGSVDQDPAKTVEAEAPAGEDKTLTEKKTTCGDTDQVSCFVVSIMSGINVNKW"
  soluble on expression in E. coli: "not soluble"
- ordered-residues: "MIDMFPMEKGEEQETYELIVRVFHKYVAPVYSENGVARFLGMLSPEGLSEMNNGKNSFVIVARDQSKIIGMISVINDSHIALFFVSPRYQGKGIGKNILDEAIKNCLNRNPELSAVTVSSSPNSKSFYEEAGFEVIGLEHHHHHH"
  soluble on expression in E. coli: "soluble"
- ordered-residues: "QQVRQSPQSLTVWEGETAILNCSYEDSTFNYFPWYQQFPGEGPALLISIRSVSDKKEDGRFTIFFNKREKKLSLHITDSQPGDSATYFCAARYQGGRALIFGTGTTVSVSP"
  soluble on expression in E. coli: "soluble"

Ask: Requested read-out: soluble on expression in E. coli. Entry: MSLAATPRKLSSKEVAALVGNLMEASESTSLENGLEVRPYAFGENELNQLGDYHALRIINERFCRTARDVFLPMLRLQPRISSFPPEVRSFDDYRSSQDNFVSITASRIEELRGNQMIVIPPPFISLLTDSYYGGQIRHVPTTRTEFTATEERCIELVTDRLNVALQVAWRDLMALTFTVVSREESMQFASFVDGEDMVVNCSFMVQLPNTEPASFDILYPLQTLKPISSQLRSRMQSDFVDDDRSWREKLERAILSIPLTLSARLCEPEVPLRQLMQMQPGDVLPVHLTEALSLLVEGQPIFEAAPGERGGQAALNLTRRHVRGEGHHHHHH
Reply: soluble

Ask: Next up: MAEVHVRELKGWEEMEEVVALQREVWGRAESDLVPRGLLVAVQDEGGLVAGAFAEGRMVGFVFGFPTKDPALHHSHMLGVLEAYRGTGAALLLKRFQRDWCLARGVRRVVWTFDPMRGVNANFNLRKLGATAKTYLPDHYGPMSGINAGAPSDRLLAEWDLLSERVYARLYAPPPEPEVAGLPQANRVEGEVPLEARLDLEAERLLFQIPEDWGRILREDPALALKWREHSRLVLPHYFARGYRLVDLVRHPNRYVLAKD
Reply: soluble

Ask: Next up: AGHMTSILSRNHVKVKGSGKASIMFAPGFGCDQSVWNAVAPAFEEDHRVILFDYVGSGHSDLRAYDLNRYQTLDGYAQDVLDVCEALDLKETVFVGHSVGALIGMLASIRRPELFSHLVMVGPSPCYLNDPPEYYGGFEEEQLLGLLEMMEKNYIGWATVFAATVLNQPDRPEIKEELESRFCSTDPVIARQFAKAAFFSDHREDLSKVTVPSLILQCADDIIAPATVGKYMHQHLPYSSLKQMEARGHCPHMSHPDETIQLIGDYLKAHV
Reply: soluble

Ask: Next up: MAHHHHHHMHVKHRATGRVVATLPFEPMPTLEDVSDAFIKAESTTATTHTGDLTVPTAYDNAEEDVDGAEEGETMYAVVYDLVTPTAPGDNGDSELAAAVTAAGLLENLPADADGTCNIGETMRKLVELGAAELLTAEPLSVSQARREYNPPEAPGLLRRIVYPASQYSPYRLDRDPLHTDKLSFYRSSTVTASVPSGPPPTSCTGLHALPVWDYGEGGLYTSYFDSYDLSCPMRGPFVRPSAAGKAALVMPLSDEEHHRIFGA
Reply: soluble

Ask: Next up: MSTHIQRSALLPYPARALFDLVNDVKRYPEFLPWCSASQVLEESESLMRAELTVAKGSLSQRFTTRNVLVPGASIEMNLENGPFTELHGVWQFKALGEKACKITLDLTFDYAGPLVKATLGPLFTQAANTMVDAFCQRAKQLYG
Reply: not soluble

Ask: Next up: GSSGSSGMQLEIQVALNFIISYLYNKLPRRRVNIFGEELERLLKKKYEGHWYPEKPYKGSGFRCIHIGEKVDPVIEQASKESGLDIDDVRGNLPQDLSVWIDPFEVSYQIGEKGPVKVLYVDDNSGPSSG
Reply: soluble

Ask: Next up: MSLYIQNLELTSYRNYDHAELQFENKVNVIIGENAQGKTNLMEAIYVLSMAKSHRTSNDKELIRWDKDYAKIEGRVMKQNGAIPMQLVISKKGKKGKVNHIEQQKLSQYVGALNTIMFAPEDLNLVKGSPQVRRRFLDMEIGQVSPVYLHDLSLYQKILSQRNHFLKQLQTRKQTDRTMLDVLTDQLVEVAAKVVVKRLQFTAQLEKWAQPIHAGISRGLEELTLKYHTALDVSDPLDLSKIGDSYQEAFSKLREKEIERGVTLSGPHRDDVLFYVNGRDVQTYGSQGQQRTTALSLKLAEIDLIHEEIGEYPILLLDDVLSELDDYRQSHLLHTIQGRVQTFVTTTSVDGIDHETLRQAGMFRVQNGALVKEGGSHHHHHH
Reply: soluble

Ask: Next up: GPGSMCSPIADNADMIVPSADTCCPNTVFERVLRCACIVMRVGDDPGYIWTPQRLGAGSFGTVTLAYRHEGDAVWRKTAVKRISLRKETRLSAVLEKVRCTGREVALCRRAGVSPHVVPMYKPWFDCREGVIALPMDAGDFSLEQYAVHCGFRFPPLALLSMCAQCARAVAHLHRRGVVHRDVKPDNFVVNVFDTVGGAGAGGDGDCGEARPPFVRILDFGLACGVEEVEQELKRCVGTPHYMAPETFSHLCDCDVPAACDVWSLGVTLFRLATGVFPVFDQDVTASWPPASASSARLGVPRLRSPWPRVVERCPAPW
Reply: not soluble

Ask: Next up: MNKRMKMCPACQQGYLYHSKPKYLHDEIILCDECDAVWLKGMNIFYGEYEKDFYSYVPFMESQGITSECIWEGDLFDHPYYEDENSNDMD
Reply: not soluble
